Listed here: items and their measured pKi.
# tested_target: Thyrotropin releasing hormone degrading enzyme (Sus scrofa, UniProt A0A287AP33)
# Sequence (A0A287AP33 whole entry): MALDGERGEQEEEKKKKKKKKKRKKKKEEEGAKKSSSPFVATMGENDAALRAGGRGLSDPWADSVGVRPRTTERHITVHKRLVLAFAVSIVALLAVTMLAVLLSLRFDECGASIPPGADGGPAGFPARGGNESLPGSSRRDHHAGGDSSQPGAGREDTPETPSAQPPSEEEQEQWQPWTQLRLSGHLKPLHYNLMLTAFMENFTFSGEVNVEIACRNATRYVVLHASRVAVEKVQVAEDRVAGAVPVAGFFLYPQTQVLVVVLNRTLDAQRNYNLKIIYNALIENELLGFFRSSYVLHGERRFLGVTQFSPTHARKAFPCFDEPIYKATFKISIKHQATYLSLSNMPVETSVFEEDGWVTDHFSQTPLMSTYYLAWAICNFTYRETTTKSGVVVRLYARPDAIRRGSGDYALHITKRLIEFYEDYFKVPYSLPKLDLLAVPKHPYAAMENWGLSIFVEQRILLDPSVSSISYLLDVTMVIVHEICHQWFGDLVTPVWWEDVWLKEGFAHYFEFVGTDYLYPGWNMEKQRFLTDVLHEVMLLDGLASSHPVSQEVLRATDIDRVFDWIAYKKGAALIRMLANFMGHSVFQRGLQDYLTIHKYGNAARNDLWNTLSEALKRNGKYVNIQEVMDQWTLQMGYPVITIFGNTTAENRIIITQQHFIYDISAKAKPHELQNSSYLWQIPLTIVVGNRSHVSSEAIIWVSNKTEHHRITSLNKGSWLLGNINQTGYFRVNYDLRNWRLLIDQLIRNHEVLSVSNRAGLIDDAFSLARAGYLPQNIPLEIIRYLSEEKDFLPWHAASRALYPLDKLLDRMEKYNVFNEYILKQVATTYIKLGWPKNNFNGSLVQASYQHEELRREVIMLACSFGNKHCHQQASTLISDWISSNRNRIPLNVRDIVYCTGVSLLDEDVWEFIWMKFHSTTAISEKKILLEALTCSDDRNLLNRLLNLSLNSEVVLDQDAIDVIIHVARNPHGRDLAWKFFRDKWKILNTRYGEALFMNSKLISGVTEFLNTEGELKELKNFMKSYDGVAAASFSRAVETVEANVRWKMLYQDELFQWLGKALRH
# assay_explanation: Inhibition of pig brain TRH-DE using Glp-His-ProAMC as substrate by DPP-4-based continuous fluorometric method
pKi: −log10 of the molar value.

- compound: "NC(=O)C[C@H](NC(=O)[C@@H]1CCC(=O)N1)C(=O)N1CCC[C@H]1C(=O)Nc1ccccc1CO"
  pKi: 4.69
- compound: "NC(=O)C[C@H](NC(=O)[C@@H]1CCC(=O)N1)C(=O)N1CCC[C@H]1C(=O)NC(=O)C1CCCc2ccccc21 (stereo partly drawn)"
  pKi: 4.65

meta.source: ChEMBL document CHEMBL3880382
